Assay: M. tuberculosis H37Rv growth inhibitors, H37Rv strain (AID 1626);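 note: bacteria incubated seven days before Alamar blue readout; 0% = bacteria only wells and 100% = bacteria with antibiotic wells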
Details: stronger effect = higher value, concentration not given here
About 2,000 (0.91%) of roughly 220,000 compounds were called active. Roughly 2% stayed inconclusive and do not appear here. The list is a sample of the results. Potency and affinity values are given separately.
recorded_metric: inhibition

Entry O=C(/C=C/c1ccccc1Cl)NCc1cccs1 has what inhibition?
2.96% (inactive)

Consider next the compound COc1ccc(NC(=O)CN(C)CC(=O)Nc2ccccc2SC)cc1Cl in the same way.
-0.42% (inactive)

Consider next the compound O=C(OCc1ccc(C(=O)c2ccccc2)cc1)c1cccc(-c2nnc(-c3ccccc3)o2)c1 in the same way.
20.2% (inactive)

Consider next the compound CCC/C=C1/CCCOC(C(=O)NCc2ccccc2)(C(F)(F)F)C1 (stereo unspecified) in the same way.
-24.5% (inactive)

Consider next the compound CCOC(=O)c1cnn(CCOC(=O)c2ccccc2F)c1NC(=O)c1ccccc1F in the same way.
-4.26% (inactive)

Consider next the compound COc1ccccc1C1C2=C(N=c3s/c(=C/c4cccc(OCC(=O)O)c4)c(=O)n31)c1ccccc1CC2 (stereo unspecified) in the same way.
-4.54% (inactive)

====

Experiment: M. tuberculosis H37Rv growth inhibitors, H37Rv strain (AID 1626);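 note: bacteria incubated seven days before Alamar blue readout; 0% = bacteria only wells and 100% = bacteria with antibiotic wells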
Conditions: stronger effect = higher value, concentration not given here
The campaign covered roughly 220,000 compounds. About 2,000 (0.91%) were called active. About 2% were inconclusive and are not listed. Not all results are given here. Measured potencies and affinities stand elsewhere.
recorded_metric: inhibition

Entry Cc1ccc(NCc2nc3ccccc3n2CCOc2ccccc2)cc1 has what inhibition?
4.17% (inactive)

Consider next the compound CC1CCCC(NC(=O)CSc2ccc(F)cc2)C1C (stereo not given) in the same way.
-2.7% (inactive)

Consider next the compound CCOc1ccccc1NC(=O)CSC1=C(C#N)C(c2ccco2)C(C(=O)Nc2nc3ccccc3s2)=C(C)N1 (stereo not given) in the same way.
49.1% (inactive)

Consider next the compound CC(=O)C1=C(C)NC(SCC(=O)c2ccc(Cl)cc2Cl)=C(C#N)C1c1ccco1 (stereo not given) in the same way.
12.4% (inactive)

Consider next the compound N/C(=N\OC(=O)CCc1ccccc1)c1ccccc1Cl in the same way.
14.4% (inactive)

Consider next the compound CC(=O)C1=C(C)NC(SCC(=O)c2ccccc2)=C(C#N)C1c1ccco1 (stereo not given) in the same way.
43.6% (inactive)

Consider next the compound Cc1cc(C)cc(N(C(=O)CCC(=O)Nc2ccccn2)C(C(=O)NC(C)C)c2ccc(O)cc2)c1 (stereo not given) in the same way.
4.72% (inactive)

Consider next the compound CC(=O)C1=C(C)NC(SCc2ccc(C#N)cc2)=C(C#N)C1c1ccco1 (stereo not given) in the same way.
-1.27% (inactive)

Consider next the compound COc1ccc2nc(N3CCC(O)CC3)c(C#N)cc2c1 in the same way.
1.43% (inactive)

Consider next the compound CN(CC(O)COC(c1ccccc1)c1ccccc1)C1CCCCC1 (stereo not given) in the same way.
5.91% (inactive)

====

Experiment: M. tuberculosis H37Rv growth inhibitors, H37Rv strain (AID 1626);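 note: bacteria incubated seven days before Alamar blue readout; 0% = bacteria only wells and 100% = bacteria with antibiotic wells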
Conditions: stronger effect = higher value, concentration not given here
Hit rate of the full screen: of about 220,000 compounds, about 2,000 (0.91%) were called active. About 2% were inconclusive and are not listed. A selection follows. Measured potencies and affinities stand elsewhere.
recorded_metric: inhibition (%)
Write the number in % without appending the unit.

Entry COc1cc(S(N)(=O)=O)c(OC)cc1N has what inhibition?
-5.42

Consider next the compound CC(=O)c1ccc(NC(=O)CSCCO)cc1 in the same way.
-4.48

Consider next the compound CC(C)c1cc(C(=O)O)c2ccccc2n1 in the same way.
-2.96

Consider next the compound COC(=O)COc1ccc(S(=O)(=O)NCCC2=CCCCC2)cc1 in the same way.
25.1

Consider next the compound Cc1cnc(C(=O)OCC(=O)Nc2cc(Cl)cc(Cl)c2)cn1 in the same way.
-2.03

Consider next the compound CCCC(=Nc1ccccc1OC)C1=C(O)CC(c2ccccc2)CC1=O (centres undefined) in the same way.
2.17

Consider next the compound c1ccc(-c2cc(-c3nc(-c4ccccn4)no3)c3ccccc3n2)cc1 in the same way.
9.71

Consider next the compound CCOc1ccc2cc(C3CC(c4ccco4)=NN3S(C)(=O)=O)c(=O)[nH]c2c1 (centres undefined) in the same way.
0.83

Consider next the compound CCOC(=O)c1ccc(NC(=O)c2cc(F)c(F)cc2Cl)cc1 in the same way.
2.44

Consider next the compound COC(CNc1cc(=O)oc2ccccc12)OC in the same way.
3.54

Consider next the compound CCCNS(=O)(=O)c1ccc(OCC(=O)NCCC2=CCCCC2)cc1 in the same way.
13.8

Consider next the compound CC(=O)N1C(=O)N(C)C2C1N(C)C(=O)N2C(C)=O (centres undefined) in the same way.
-8.79

Consider next the compound COc1ccc(-c2cc(C(F)(F)F)n3nc(C(=O)Nc4c(C)n(C)n(-c5ccccc5)c4=O)cc3n2)cc1 in the same way.
8.28

Consider next the compound CCCOC(=O)c1ccc(NC(=O)CC(C)(C)C)cc1 in the same way.
-1.14

Consider next the compound Cc1cc(C(=O)N(CCC#N)Cc2cccs2)no1 in the same way.
-6.57

Consider next the compound Cc1c(C(=O)N2CCCCC2)sc(NC(=O)C2CC2)c1C#N in the same way.
-1.68

Consider next the compound CCn1c(SCc2ccc(C(=O)Nc3nccs3)cc2)nnc1-c1ccc(NC(C)=O)cc1 in the same way.
0.27

Consider next the compound Cc1ccccc1CSCC(=O)NC1CCCC1 in the same way.
3.78

Consider next the compound Cc1c(C(=O)N2CCCCC2)sc(NC(=O)C(C)C)c1C#N in the same way.
-2.5

Consider next the compound COc1cccc2cc(C(N)=O)/c(=N/NC(=O)COc3ccc(Cl)cc3)oc12 in the same way.
1.32

Consider next the compound N#CC(C(=O)CCN1C(=O)C2CC=CCC2C1=O)c1nc2ccccc2[nH]1 (centres undefined) in the same way.
-15.5

Consider next the compound CCOC(=O)c1ccc(NC(=O)COC)cc1 in the same way.
79.3

Consider next the compound O=C(O)c1cc([N+](=O)[O-])ccc1Nc1ccccc1 in the same way.
0.55

Consider next the compound CCOC(=O)c1cc2occc2n1CCCN1C(=O)c2ccccc2C1=O in the same way.
-1.25
